Tested on: HCT116
Test: Cytotoxic activity against colon carcinoma line HCT116
Format: cell-based
Settings: Homo sapiens, HCT-116, read-out: IC50 Line HCT116
Measure Name: IC50
Respond with a number, then the unit of measure.

I'm curious: which IC50 was measured for CC[C@@]1(O)C(=O)OCc2c1cc1n(c2=O)Cc2cc3ccccc3nc2-1 [Camptothecin, camptothecin] tested on HCT116?
10.5 nM
